protocol.summary: Blood plasma levels in human patients
Format: in vivo
run.parameters: plasma, oral, 5 mg/kg bw, monepantel as Zolvix 5 mg/kg bw daily, 1 h, average of patients, read-out: Blood plasma level of monepantel sulfone, Average
endpoint: concentration at 1 h (ng/mL)
Your answer is read as ng/mL, so omit the unit and give the number.

### Prompt concentration at 1 h for C[C@](C#N)(COc1cc(C#N)ccc1C(F)(F)F)NC(=O)c1ccc(S(=O)(=O)C(F)(F)F)cc1 ?
### Response 149

###

protocol.summary: Blood plasma levels in human patients
Assay type: in vivo
run.parameters: plasma, oral, 5 mg/kg bw, monepantel as Zolvix 5 mg/kg bw daily, 8 h, average of patients, read-out: Blood plasma level of monepantel, Average
endpoint: concentration at 8 h (ng/mL)
Express the result in ng/mL but write the number alone.

### Prompt So what does the record say about concentration at 8 h for C[C@](C#N)(COc1cc(C#N)ccc1C(F)(F)F)NC(=O)c1ccc(SC(F)(F)F)cc1 ?
### Response 68.5

###

protocol.summary: Blood plasma levels in pet dogs of the veterinary trial
Format: in vivo, dog
run.parameters: plasma, oral, 179 mg/kg bw; dog 003-001 that achieved a partial response; read-out: monepantel blood plasma level
endpoint: concentration at 14 day (nM)
Return type: number; implicit unit nM.

### Prompt # query: concentration at 14 day of entry C[C@](C#N)(COc1cc(C#N)ccc1C(F)(F)F)NC(=O)c1ccc(SC(F)(F)F)cc1
### Response 100

###

protocol.summary: Blood plasma levels in human patients
Type: in vivo
run.parameters: plasma, oral, 5 mg/kg bw, monepantel as Zolvix 5 mg/kg bw daily, 2 h, individual patients, read-out: Blood plasma level of monepantel
endpoint: concentration at 2 h (ng/mL)
Return type: number; implicit unit ng/mL.

### Prompt Give its concentration at 2 h value. Item: C[C@](C#N)(COc1cc(C#N)ccc1C(F)(F)F)NC(=O)c1ccc(SC(F)(F)F)cc1
### Response 183

###

protocol.summary: Blood plasma levels in human patients
Format: in vivo
run.parameters: plasma, oral, 5 mg/kg bw, monepantel as Zolvix 5 mg/kg bw daily, 4 h, individual patients, read-out: Blood plasma level of monepantel sulfone
endpoint: concentration at 4 h (ng/mL)
Write the number in ng/mL without appending the unit.

### Prompt // returns reported concentration at 4 h for input C[C@](C#N)(COc1cc(C#N)ccc1C(F)(F)F)NC(=O)c1ccc(S(=O)(=O)C(F)(F)F)cc1 [MPLS, monepantel sulfone]
### Response 732

###

protocol.summary: Blood plasma levels in human patients
Type: in vivo
run.parameters: plasma, oral, 5 mg/kg bw, monepantel as Zolvix 5 mg/kg bw daily, 4 h, average of patients, read-out: Blood plasma level of monepantel sulfone, Average
endpoint: concentration at 4 h (ng/mL)
Give the number; ng/mL is assumed, so skip it.

### Prompt Which concentration at 4 h value is on record for C[C@](C#N)(COc1cc(C#N)ccc1C(F)(F)F)NC(=O)c1ccc(S(=O)(=O)C(F)(F)F)cc1 ?
### Response 896

###

protocol.summary: Blood plasma levels in human patients
Type: in vivo
run.parameters: plasma, oral, 5 mg/kg bw, monepantel as Zolvix 5 mg/kg bw daily, 12 h, individual patients, read-out: Blood plasma level of monepantel sulfone
endpoint: concentration at 12 h (ng/mL)
Output spec: scalar in ng/mL, unitless text.

### Prompt GET /values?readout=concentration at 12 h&item= C[C@](C#N)(COc1cc(C#N)ccc1C(F)(F)F)NC(=O)c1ccc(S(=O)(=O)C(F)(F)F)cc1 [MPLS, monepantel sulfone]
### Response 409
